molecular target: Orexin receptor type 2 (Homo sapiens) (UniProt O43614); assay: Antagonist activity at human Gq-coupled HCRTR2 expressed in CHOK1 cells assessed as inhibition in Orexin A-induced beta-arrestin 2 recruitment at 20 uM incubated for 30 mins followed by Orexin A addition and measured after 90 or 180 mins by pathhunter beta-arrestin assay relative to control; format: cell-based
Sequence (O43614 whole entry): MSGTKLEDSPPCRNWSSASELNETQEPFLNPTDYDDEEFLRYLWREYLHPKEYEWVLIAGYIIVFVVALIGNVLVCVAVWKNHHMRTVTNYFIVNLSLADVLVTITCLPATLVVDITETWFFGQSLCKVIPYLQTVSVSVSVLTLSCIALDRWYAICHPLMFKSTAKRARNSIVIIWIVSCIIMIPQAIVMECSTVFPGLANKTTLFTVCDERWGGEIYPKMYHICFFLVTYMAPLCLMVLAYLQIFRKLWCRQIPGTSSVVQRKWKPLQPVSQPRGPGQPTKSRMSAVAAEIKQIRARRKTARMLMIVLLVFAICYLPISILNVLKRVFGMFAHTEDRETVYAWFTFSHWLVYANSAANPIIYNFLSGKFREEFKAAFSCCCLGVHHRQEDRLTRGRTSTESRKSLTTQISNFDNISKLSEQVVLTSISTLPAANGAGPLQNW
Reported inhibition is given for each of the following compounds.
Please state the figure in %; there is no need to write the unit.

Consider the reported inhibition for these compounds:
INSERT INTO results (entry_smiles, measured_result) VALUES
  ('CC[C@]12CCCN3CCc4c(n(c5ccccc45)[C@@](O)(C(=O)OC)C1)[C@@H]32', 9),
  ('CC[C@@]12CCCN3CCc4c([nH]c5ccccc45)[C@]31N(Cc1cn(Cc3ccccc3)nn1)C(=O)C2', 80),
  ('CC[C@]12CCCN3CC[C@]4(C(=O)c5ccccc5N4C(=O)C1)[C@@H]32', 16),
  ('COC(=O)[C@@H]1[C@H]2C[C@H]3c4[nH]c5ccccc5c4CCN3C[C@@H]2CC[C@@H]1O', 9),
  ('CC[C@@]1(CC(=O)NC2CCCC2)CCCN2CCc3c([nH]c4ccccc34)[C@@H]21', 8),
  ('CC[C@@]12C=C(C(=O)OC)n3c(c(c4ccccc43)CCN(/C=C/C(=O)OC)CCC1)[C@@H]2c1ccc(O)cc1', 10);

Could you now consider this next compound?
Prompt: Input `CC[C@@]1(CC(=O)OC)CCCN2CC[C@]3(O)C(=Nc4ccccc43)[C@@H]21` , output reported inhibition.
Completion: -4

###

target: Prolactin-releasing peptide receptor (Homo sapiens) (UniProt P49683); assay: Antagonist activity at human Gq-coupled PRLHR expressed in CHOK1 cells assessed as inhibition in prolactin releasing peptide (1 to 31)-induced beta-arrestin 2 recruitment at 20 uM incubated for 30 mins followed by prolactin releasing peptide (1 to 31) addition and measured after 90 or 180 mins by pathhunter beta-arrestin assay relative to control; assay type: cell-based
Sequence (P49683 whole entry): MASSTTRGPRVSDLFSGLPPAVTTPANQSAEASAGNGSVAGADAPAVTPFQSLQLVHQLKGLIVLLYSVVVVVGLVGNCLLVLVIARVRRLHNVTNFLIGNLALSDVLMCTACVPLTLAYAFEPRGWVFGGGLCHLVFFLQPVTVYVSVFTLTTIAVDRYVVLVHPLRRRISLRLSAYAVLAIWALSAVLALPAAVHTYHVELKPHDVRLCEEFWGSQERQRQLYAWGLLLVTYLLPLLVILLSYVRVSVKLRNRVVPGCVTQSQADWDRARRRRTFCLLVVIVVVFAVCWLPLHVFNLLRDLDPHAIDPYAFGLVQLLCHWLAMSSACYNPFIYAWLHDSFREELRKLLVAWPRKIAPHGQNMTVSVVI
Decide by inhibition: equal to or exceeding 20% means t, less means f.

INSERT INTO measurements (entry_smiles, answer_label) VALUES
  ('CC[C@@]1(CC(=O)NC2CCCC2)CCCN2CCc3c([nH]c4ccccc34)[C@@H]21', 'f'),
  ('CC[C@@]1(CC(=O)OC)CCCN2CC[C@]3(O)C(=Nc4ccccc43)[C@@H]21', 't'),
  ('CC[C@@]12C=C(C(=O)OC)n3c(c(c4ccccc43)CCN(/C=C/C(=O)OC)CCC1)[C@@H]2c1ccc(O)cc1', 't'),
  ('CC[C@@]12CCCN3CCc4c([nH]c5ccccc45)[C@]31N(Cc1cn(Cc3ccccc3)nn1)C(=O)C2', 't'),
  ('CC[C@]12CCCN3CC[C@]4(C(=O)c5ccccc5N4C(=O)C1)[C@@H]32', 'f'),
  ('CC[C@]12CCCN3CCc4c(n(c5ccccc45)[C@@](O)(C(=O)OC)C1)[C@@H]32', 'f');

Now, please, on to the next molecule.
Prompt: Check this molecule for inhibition at or above 20%: `COC(=O)[C@@H]1[C@H]2C[C@H]3c4[nH]c5ccccc5c4CCN3C[C@@H]2CC[C@@H]1O`
Completion: f

###

molecular target: Prostacyclin receptor (Homo sapiens, UniProt P43119); assay: Antagonist activity at human Gs-coupled PTGIR assessed as inhibition in beraprost-induced beta-arrestin 2 recruitment at 20 uM incubated for 30 mins followed by beraprost- addition and measured after 90 or 180 mins by pathhunter beta-arrestin assay relative to control
Sequence (P43119 whole entry): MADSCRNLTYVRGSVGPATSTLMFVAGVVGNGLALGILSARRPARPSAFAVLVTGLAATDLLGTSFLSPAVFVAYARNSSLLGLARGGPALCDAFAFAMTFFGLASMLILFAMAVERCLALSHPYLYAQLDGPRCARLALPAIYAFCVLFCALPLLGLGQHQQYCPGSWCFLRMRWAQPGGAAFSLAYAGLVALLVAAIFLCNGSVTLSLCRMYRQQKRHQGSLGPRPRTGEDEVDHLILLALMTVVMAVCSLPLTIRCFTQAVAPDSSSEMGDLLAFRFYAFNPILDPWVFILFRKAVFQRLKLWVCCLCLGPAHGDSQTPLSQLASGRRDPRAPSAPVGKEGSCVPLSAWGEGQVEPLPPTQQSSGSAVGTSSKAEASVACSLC
Decide by inhibition: equal to or exceeding 20% means Yes, less means No.

Prompt: Check this molecule for inhibition at or above 20%: `CC[C@@]12CCCN3CCc4c([nH]c5ccccc45)[C@]31N(Cc1cn(Cc3ccccc3)nn1)C(=O)C2`
Completion: Yes

Prompt: Check this molecule for inhibition at or above 20%: `CC[C@]12CCCN3CC[C@]4(C(=O)c5ccccc5N4C(=O)C1)[C@@H]32`
Completion: Yes

Prompt: Check this molecule for inhibition at or above 20%: `CC[C@@]1(CC(=O)NC2CCCC2)CCCN2CCc3c([nH]c4ccccc34)[C@@H]21`
Completion: Yes

Prompt: Check this molecule for inhibition at or above 20%: `CC[C@@]12C=C(C(=O)OC)n3c(c(c4ccccc43)CCN(/C=C/C(=O)OC)CCC1)[C@@H]2c1ccc(O)cc1`
Completion: Yes

Prompt: Check this molecule for inhibition at or above 20%: `CC[C@]12CCCN3CCc4c(n(c5ccccc45)[C@@](O)(C(=O)OC)C1)[C@@H]32`
Completion: No

Prompt: Check this molecule for inhibition at or above 20%: `CC[C@@]1(CC(=O)OC)CCCN2CC[C@]3(O)C(=Nc4ccccc43)[C@@H]21`
Completion: Yes

Prompt: Check this molecule for inhibition at or above 20%: `COC(=O)[C@@H]1[C@H]2C[C@H]3c4[nH]c5ccccc5c4CCN3C[C@@H]2CC[C@@H]1O`
Completion: No

FYI, the data here is from ChEMBL document CHEMBL4342456.
